Origin of measurements: PubChem BioAssay (NCI)

# Tested on: SW-620 colon
# method-description: NCI-60 one-dose screen, 48 h (100 = growth as untreated, 0 = no growth, -100 = all killed)
# condition-set: 10 µM unless noted
The panel holds about 83,000 compounds, 20% with a hit somewhere; the sample as a whole holds those more often.
Classification field: yes (1) = growth at or over 30%; no (0) = growth under 30%.

[
  {
    "compound-string": "CC(=O)c1ccc(Nc2nc(SC(C)C)nc(-c3ccccc3)c2C#N)cc1",
    "category-label": "yes (1)"
  },
  {
    "compound-string": "OC1CCN(CCCOc2c3ccccc3nc3c2oc2ccccc23)CC1",
    "category-label": "no (0)"
  },
  {
    "compound-string": "CCOC(=O)c1sc(NCC(=O)Nc2cccc([N+](=O)[O-])c2)c(C(=O)OCC)c1C",
    "category-label": "no (0)"
  },
  {
    "compound-string": "COc1ccc(C(=O)c2cc(C(=O)/C=C/c3c(Cl)cccc3Cl)c3cc(C)ccn23)cc1",
    "category-label": "yes (1)"
  }
]
